For each record, write down the corresponding pKd.
# assayed system: T1, GST-tagged AIM2 (Invitrogen) (UniProt O14862 1-343)
# T1 sequence (looked up): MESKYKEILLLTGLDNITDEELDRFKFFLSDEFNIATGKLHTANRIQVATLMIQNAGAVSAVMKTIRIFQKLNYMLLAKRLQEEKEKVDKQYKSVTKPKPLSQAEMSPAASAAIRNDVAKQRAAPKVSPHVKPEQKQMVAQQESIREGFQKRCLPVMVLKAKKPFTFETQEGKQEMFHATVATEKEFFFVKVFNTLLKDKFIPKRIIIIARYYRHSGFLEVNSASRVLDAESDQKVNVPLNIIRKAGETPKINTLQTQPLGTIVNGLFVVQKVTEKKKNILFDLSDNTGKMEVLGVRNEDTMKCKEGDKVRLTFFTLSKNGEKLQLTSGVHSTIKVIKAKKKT
# assay procedure: BLI
Give bare numbers, as −log10 of the molar value.

// below: answered binders
# binder, result type, observed value
records = [
    ("Recombinant HMGB1 (disulfide HMGB1, not treated with DTT) (natural protein, human, UniProt P09429 1-215, looked up, disulfide bond between cysteines 23 and 45 (the paper calls the protein without DTT disulfide HMGB1)) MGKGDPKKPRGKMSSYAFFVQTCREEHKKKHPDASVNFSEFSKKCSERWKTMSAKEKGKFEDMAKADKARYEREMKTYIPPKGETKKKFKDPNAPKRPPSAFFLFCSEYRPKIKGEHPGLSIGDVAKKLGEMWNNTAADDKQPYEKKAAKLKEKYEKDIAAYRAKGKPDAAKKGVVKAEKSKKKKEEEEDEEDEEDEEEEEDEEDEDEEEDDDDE", "pKd", 7.64),
    ("Recombinant HMGB1 A box (disulfide form, not treated with DTT) (domain or fragment, disulfide form (the paper calls the A box without DTT its disulfide form)) MGKGDPKKPRGKMSSYAFFVQTCREEHKKKHPDASVNFSEFSKKCSERWKTMSAKEKGKFEDMAKADKARYEREMKTYI", "pKd", 7.39),
    ("Recombinant HMGB1(C45S) (natural protein, human, UniProt P09429 1-215, looked up) MGKGDPKKPRGKMSSYAFFVQTCREEHKKKHPDASVNFSEFSKKSSERWKTMSAKEKGKFEDMAKADKARYEREMKTYIPPKGETKKKFKDPNAPKRPPSAFFLFCSEYRPKIKGEHPGLSIGDVAKKLGEMWNNTAADDKQPYEKKAAKLKEKYEKDIAAYRAKGKPDAAKKGVVKAEKSKKKKEEEEDEEDEEDEEEEEDEEDEDEEEDDDDE", "pKd", 7.89),
]

Could you now consider this next binder?
[ask] Need pKd, item Recombinant HMGB1(C23S) (natural protein, human, UniProt P09429 1-215, looked up) MGKGDPKKPRGKMSSYAFFVQTSREEHKKKHPDASVNFSEFSKKCSERWKTMSAKEKGKFEDMAKADKARYEREMKTYIPPKGETKKKFKDPNAPKRPPSAFFLFCSEYRPKIKGEHPGLSIGDVAKKLGEMWNNTAADDKQPYEKKAAKLKEKYEKDIAAYRAKGKPDAAKKGVVKAEKSKKKKEEEEDEEDEEDEEEEEDEEDEDEEEDDDDE
[reply] 7.92

Origin of measurements: paper PMC5191963
